Target: Vascular endothelial growth factor receptor 2 (Homo sapiens)
Sequence (P35968 whole entry): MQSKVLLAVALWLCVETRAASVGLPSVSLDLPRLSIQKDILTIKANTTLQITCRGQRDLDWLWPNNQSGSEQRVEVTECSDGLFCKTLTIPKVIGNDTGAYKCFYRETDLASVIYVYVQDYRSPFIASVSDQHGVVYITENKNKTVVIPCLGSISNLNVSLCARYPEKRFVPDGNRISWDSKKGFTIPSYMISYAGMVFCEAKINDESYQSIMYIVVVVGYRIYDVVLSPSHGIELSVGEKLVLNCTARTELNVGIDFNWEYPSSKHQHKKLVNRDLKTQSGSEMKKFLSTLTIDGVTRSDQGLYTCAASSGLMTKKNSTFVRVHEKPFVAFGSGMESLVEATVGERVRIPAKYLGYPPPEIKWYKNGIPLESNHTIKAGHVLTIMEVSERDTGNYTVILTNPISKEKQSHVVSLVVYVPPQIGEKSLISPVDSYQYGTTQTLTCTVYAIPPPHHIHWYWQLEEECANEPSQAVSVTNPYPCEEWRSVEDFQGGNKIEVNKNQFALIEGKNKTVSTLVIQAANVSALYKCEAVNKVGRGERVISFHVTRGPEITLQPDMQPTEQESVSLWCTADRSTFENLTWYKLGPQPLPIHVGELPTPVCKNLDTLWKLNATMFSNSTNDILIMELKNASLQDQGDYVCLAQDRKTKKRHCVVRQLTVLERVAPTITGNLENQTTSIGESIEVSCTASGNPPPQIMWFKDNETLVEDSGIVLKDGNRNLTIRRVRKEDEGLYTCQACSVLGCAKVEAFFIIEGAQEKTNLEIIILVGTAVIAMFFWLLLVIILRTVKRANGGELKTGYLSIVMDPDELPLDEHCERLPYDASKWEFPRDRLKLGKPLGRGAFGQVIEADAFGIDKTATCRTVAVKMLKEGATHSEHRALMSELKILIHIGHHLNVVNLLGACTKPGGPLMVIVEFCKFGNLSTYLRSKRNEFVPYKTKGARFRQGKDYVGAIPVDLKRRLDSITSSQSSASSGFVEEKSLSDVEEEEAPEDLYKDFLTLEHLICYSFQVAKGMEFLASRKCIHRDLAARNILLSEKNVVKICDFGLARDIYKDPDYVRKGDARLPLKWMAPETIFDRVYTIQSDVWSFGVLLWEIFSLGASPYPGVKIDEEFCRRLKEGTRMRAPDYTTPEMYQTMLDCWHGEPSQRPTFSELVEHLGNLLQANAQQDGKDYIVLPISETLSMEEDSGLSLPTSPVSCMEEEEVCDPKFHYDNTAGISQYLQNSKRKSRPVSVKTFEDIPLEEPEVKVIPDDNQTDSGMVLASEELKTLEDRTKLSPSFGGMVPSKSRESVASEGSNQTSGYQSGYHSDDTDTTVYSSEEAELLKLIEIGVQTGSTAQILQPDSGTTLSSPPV
Measurement Label: pIC50
API: returns pIC50 as number; meaning -log10 of concentration in mol/L.

Input line: For the compound C[C@@H]1CCC(N2CC[C@]3(CN(C(=O)c4cc5ccc(F)cc5[nH]4)c4ccccc43)C2)CN1 (stereo partly specified) , what pIC50 is on record?
Output line: 4.66

---

For each record, write down the corresponding IC50.

Input line: Lab note: need IC50 with Cyclin-dependent kinase 2 (Homo sapiens) for entry O=C(c1cc2ccc(F)cc2[nH]1)N1C[C@]2(CCN(C3CCNC3)C2)c2ccccc21 (some centres not stated) , please look it up.
Output line: > 30 µM

Input line: Lab note: need IC50 with Cyclin-dependent kinase 2 (Homo sapiens) for entry O=C(c1cc2cc(F)ccc2[nH]1)N1C[C@]2(CCN(C3CCCNC3)C2)c2ccccc21 (some centres not stated) , please look it up.
Output line: > 30 µM

Data origin, for the record: ChEMBL document CHEMBL1933021
